# subject_of_test: T1, rhPSMA, extracellular part of human PSMA (residues 44-750) with its native N-terminus (human, UniProt Q04609 44-750, N-glycosylated (made in Schneider S2 insect cells))
# T1 construct: range 44-750; No tag; also called wild-type rhPSMA; rhGCPII
# protocol_notes: SPR (BIAcore 2000), rhPSMA amine-coupled to CM5 chip, Anticalin as analyte

- binder: "Anticalin A3A5.7 (designed binder, Soluble form as in SPR; also called variant A3A5.7; not shown: C-terminal Strep-tag II) QDSTSDLIPAPPLSKVPLQQNFQDNQFHGKWYVVGLAGNVILREDKDPYKMSATIYELKEDKSYNVTNVRFYLNKCYYTIATFVPGSRPGEFTLGTIKSGPGKTSGLVRVVSTNYSQHAMVFFKEVQQNREWFIITLYGRTKELTSKLKENFIRFSKSLGLPENHIVFPVPIDQCIDG"
  kon: "270000 M⁻¹ s⁻¹"
- binder: "Anticalin A3A5 (designed binder, Differs from A3 by Val for Met at position 40; monomeric, 21 kDa; also called variant A3A5; not shown: C-terminal Strep-tag II) QDSTSDLIPAPPLSKVPLQQNFQDNQFHGKWYVVGLAGNVILREDKDPYKMSATIYELKEDKSYNVTNVRFYLKKCYYTIATFVPGSQPGEFTLGTIKSGPGKTSGLVRVVSTNYNQHAMVFFKEVQQNREWFIITLYGRTKELTSELKENFIRFSKSLGLPENHIVFPVPIDQCIDG"
  kon: "71000 M⁻¹ s⁻¹"
- binder: "Anticalin A3 (designed binder, Lcn2-derived lipocalin variant, monomeric, made by periplasmic secretion in E. coli from pNGAL98 with a C-terminal Strep-tag II; also called variant A3; not shown: C-terminal Strep-tag II) QDSTSDLIPAPPLSKVPLQQNFQDNQFHGKWYVVGLAGNMILREDKDPYKMSATIYELKEDKSYNVTNVRFYLKKCYYTIATFVPGSQPGEFTLGTIKSGPGKTSGLVRVVSTNYNQHAMVFFKEVQQNREWFIITLYGRTKELTSELKENFIRFSKSLGLPENHIVFPVPIDQCIDG"
  kon: "120000 M⁻¹ s⁻¹"
